target: human 5-HT7 receptor (Homo sapiens (Human), UniProt P34969); test: Test 2: antagonist activity for human 5-HT7 receptor (aequorin luminescence, CHO-K1 cells); details: Gα16
Sequence (P34969 whole entry): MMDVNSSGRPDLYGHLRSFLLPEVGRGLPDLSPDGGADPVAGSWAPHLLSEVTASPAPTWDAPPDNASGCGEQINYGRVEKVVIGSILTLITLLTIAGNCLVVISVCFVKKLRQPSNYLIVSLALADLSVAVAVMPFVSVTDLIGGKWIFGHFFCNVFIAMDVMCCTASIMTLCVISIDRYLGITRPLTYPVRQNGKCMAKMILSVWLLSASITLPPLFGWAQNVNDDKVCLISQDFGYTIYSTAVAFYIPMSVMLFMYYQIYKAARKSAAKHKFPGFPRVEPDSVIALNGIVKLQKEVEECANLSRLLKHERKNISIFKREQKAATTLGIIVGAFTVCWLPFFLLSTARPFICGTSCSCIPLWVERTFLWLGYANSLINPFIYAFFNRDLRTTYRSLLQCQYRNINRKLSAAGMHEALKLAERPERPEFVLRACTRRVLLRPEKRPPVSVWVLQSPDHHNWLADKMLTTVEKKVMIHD
Binning rule for recorded IC50: class 0 (below 70 nM), class 1 (70 nM to below 80 nM), class 2 (80 nM or more)

| compound | group |
| --- | --- |
| CCN(CCN1CCC(c2noc3cc(F)ccc23)CC1)C(=O)C(O)CCC(=O)OC (stereo not drawn) [Example 5] | class 0 |
| CC(O)C(=O)N(CCN1CCC(c2noc3cc(F)ccc23)CC1)C(C)C (stereo not drawn) [Example 31] | class 0 |
| CC[C@@H](O)C(=O)N(CC)CCN1CCC(c2noc3cc(F)ccc23)CC1 [Example 29] | class 2 |
| CCN(CCN1CCC(c2noc3cc(Cl)ccc23)CC1)C(=O)[C@H](C)O [Example 15] | class 2 |
| CCN(CCN1CCC(c2noc3cc(F)ccc23)CC1)C(=O)[C@H]1CC[C@@H](O)CC1 [Example 44] | class 1 |
| CC(C)N(CCN1CCC(c2noc3cc(F)ccc23)CC1)C(=O)[C@@H](C)O [Example 42] | class 0 |
